target: HRgpA-6H (Porphyromonas gingivalis) (UniProt P28784); test: ELISA, coated HRgpA-6H
Observable: OD450 nm

# OD450 nm of KB001 mouse Fab VL S26D (Fab, V domains shown) VH: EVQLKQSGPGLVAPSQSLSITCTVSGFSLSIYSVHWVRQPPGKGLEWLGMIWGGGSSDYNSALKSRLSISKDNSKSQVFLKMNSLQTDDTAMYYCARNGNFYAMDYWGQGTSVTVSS VL: QIVLTQSPAIMSASLGERVTMTCTADSSVSSSFLHWYQQKPGSSPQLWIYSTSNLASGVPARFSGSGSGTSYSLTISSMEAEDAATYYCHQYHHSPYIYTFGGGTKLEIK = 0.821

# OD450 nm of KB001 mouse Fab VH G55D (Fab, V domains shown) VH: EVQLKQSGPGLVAPSQSLSITCTVSGFSLSIYSVHWVRQPPGKGLEWLGMIWGGDSSDYNSALKSRLSISKDNSKSQVFLKMNSLQTDDTAMYYCARNGNFYAMDYWGQGTSVTVSS VL: QIVLTQSPAIMSASLGERVTMTCTASSSVSSSFLHWYQQKPGSSPQLWIYSTSNLASGVPARFSGSGSGTSYSLTISSMEAEDAATYYCHQYHHSPYIYTFGGGTKLEIK = 0.697
